Target: EGFR L858R/T790M/C797S (Homo sapiens, UniProt P00533, C797S/L858R/T790M)
Construct: expressed in transfected cells; host or cells: BaF3-LTC
Sequence (P00533 25-1210 T790M/C797S/L858R): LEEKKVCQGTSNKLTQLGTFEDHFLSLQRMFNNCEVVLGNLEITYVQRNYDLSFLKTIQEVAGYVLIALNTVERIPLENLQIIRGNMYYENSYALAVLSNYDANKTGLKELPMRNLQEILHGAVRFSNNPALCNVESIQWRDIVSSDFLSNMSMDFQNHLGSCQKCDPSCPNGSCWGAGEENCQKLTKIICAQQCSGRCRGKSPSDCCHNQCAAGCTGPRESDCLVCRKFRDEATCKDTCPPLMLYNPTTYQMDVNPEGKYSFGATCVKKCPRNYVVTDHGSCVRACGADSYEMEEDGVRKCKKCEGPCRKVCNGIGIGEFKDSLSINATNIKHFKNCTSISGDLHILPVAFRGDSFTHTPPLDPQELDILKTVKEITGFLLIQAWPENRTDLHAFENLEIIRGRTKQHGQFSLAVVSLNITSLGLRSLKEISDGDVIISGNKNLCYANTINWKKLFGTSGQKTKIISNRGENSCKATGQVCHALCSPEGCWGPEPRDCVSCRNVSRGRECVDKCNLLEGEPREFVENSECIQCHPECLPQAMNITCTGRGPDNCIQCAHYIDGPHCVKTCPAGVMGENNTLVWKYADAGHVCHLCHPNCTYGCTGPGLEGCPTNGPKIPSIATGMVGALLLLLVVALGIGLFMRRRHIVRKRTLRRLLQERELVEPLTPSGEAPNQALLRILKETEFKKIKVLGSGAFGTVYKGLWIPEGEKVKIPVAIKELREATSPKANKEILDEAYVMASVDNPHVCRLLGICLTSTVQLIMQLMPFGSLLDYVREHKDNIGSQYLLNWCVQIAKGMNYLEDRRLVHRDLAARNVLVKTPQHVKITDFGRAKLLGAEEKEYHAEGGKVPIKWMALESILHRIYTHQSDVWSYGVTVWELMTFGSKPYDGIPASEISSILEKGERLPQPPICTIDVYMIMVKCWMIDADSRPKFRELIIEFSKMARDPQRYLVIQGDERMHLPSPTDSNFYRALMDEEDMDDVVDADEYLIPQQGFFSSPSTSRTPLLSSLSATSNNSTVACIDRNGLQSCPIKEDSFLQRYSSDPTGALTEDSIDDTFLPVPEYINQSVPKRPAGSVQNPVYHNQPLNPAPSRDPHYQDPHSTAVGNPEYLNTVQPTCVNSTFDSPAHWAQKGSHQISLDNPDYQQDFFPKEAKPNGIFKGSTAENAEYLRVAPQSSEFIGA
Test: EGFR degradation HTRF assay in BaF3-LTC cells
Assay type: cell-based
Details: BaF3-LTC (L858R/T790M/C797S), maximum percentage of inhibition (degradation); read-out: BaF3-LTC Dmax (%)
This listing pairs compounds with measured Dmax.
Please reply with the bare figure in % and do not write the unit itself.

Read the entry `CCOc1cc(N2CCC(N3CCN(C(=O)[C@H]4CN(c5cc(F)c([C@H]6CCC(=O)NC6=O)c(F)c5)CC4(C)C)CC3)CC2)c(C)cc1Nc1ncc(Br)c(Nc2ccc3nc(C)ccc3c2P(C)(C)=O)n1` and write its reported Dmax.
97.5

Read the entry CCOc1cc(N2CCC(N3CCN(CCc4cc(F)c(F)c5c4n(CC)c(=O)n5C4CCC(=O)NC4=O)CC3)CC2)c(CC)cc1Nc1ncc(Br)c(Nc2ccc3nc(CC)ccc3c2P(C)(C)=O)n1 (stereo not shown) and write its reported Dmax.
78.1

Read the entry CCOc1cc(N2CCC(N3CCN(CCc4c(F)ccc5c4n(C)c(=O)n5C4CCC(=O)NC4=O)CC3)CC2)c(CC)cc1Nc1ncc(Br)c(Nc2ccc3nc(CC)ccc3c2P(C)(C)=O)n1 (stereo not shown) and write its reported Dmax.
90.2

Read the entry CCOc1cc(N2CCC(N3CCN(CCc4cccc5c4n(C)c(=O)n5C4CCC(=O)NC4=O)CC3)CC2)c(CC)cc1Nc1ncc(Br)c(Nc2ccc3nc(CC)ccc3c2P(C)(C)=O)n1 (stereo not shown) and write its reported Dmax.
94.7

Read the entry `CCOc1cc(N2CCC(N3CCN(CCc4cc(F)c([C@H]5CCC(=O)NC5=O)c(F)c4)CC3)CC2)c(CC)cc1Nc1ncc(Cl)c(Nc2cc(F)c3nc(CC)ccc3c2P(C)(C)=O)n1` and write its reported Dmax.
83.7

Read the entry `COc1cc(N2CCC(N3CCN(C(=O)[C@H]4CN(c5cc(F)c([C@H]6CCC(=O)NC6=O)c(F)c5)CC4(C)C)CC3)CC2)c(C)cc1Nc1ncc(Br)c(Nc2ccc3nc(C)c(F)cc3c2P(C)(C)=O)n1` and write its reported Dmax.
97.1

Read the entry `CCOc1cc(N2CCC(N3CCN(CC4CN(c5cc(F)c([C@H]6CCC(=O)NC6=O)c(F)c5)C4)CC3)CC2)c(CC)cc1Nc1ncc(Br)c(Nc2ccc3c(=O)n(CC)ncc3c2P(C)(C)=O)n1` and write its reported Dmax.
89.7
